System: BV-2
MEASUREMENT_NOTES: Antiinflammatory activity against mouse BV-2 cells assessed as reduction in LPS-induced NO production incubated for 24 hrs by Griess reagent based assay
Format: functional, cell-based
DETAILS: BV-2, 24 h
OBSERVATION_TYPE: IC50 (µM)

- CO[C@]12C=C3C=CC(=O)[C@@H](C)[C@@]3(C)C[C@@]1(O)[C@H](C)CO2 [MICROSPHAEROPSISIN]: 80
- CC(=O)OC[C@@H](C)[C@]1(O)C[C@@]2(C)C(=CC1=O)[C@@H]1[C@H](C(=O)[C@@H]2C)[C@H]2C(=O)[C@H](C)[C@@]3(C)C[C@@](O)([C@H](C)COC(C)=O)C(=O)C=C3[C@H]21: 2.8
- COc1cc(/C=C/C(=O)CC(=O)/C=C/c2ccc(O)c(OC)c2)ccc1O [CURCUMIN]: 8.6
- CC1=C(C)[C@]2(C=CC1=O)C[C@@]1(O)[C@H](C)CO[C@@]1(O)C2: 8.1
- C[C@H](CO)[C@@H]1C[C@@]2(C)C(=CC1=O)C=CC(=O)[C@H]2C: 8.1
- C=C(C)[C@]1(O)C[C@@]2(C)C(=C[C@H]1O)C=CC(=O)[C@@H]2C: 98

====

Test system: BV-2
MEASUREMENT_NOTES: Antiinflammatory activity against mouse BV-2 cells assessed as reduction in LPS-induced NO production incubated for 24 hrs by Griess reagent based assay
Format: functional, cell-based
DETAILS: BV-2, 24 h
pIC50: −log10 of the molar value.
OBSERVATION_TYPE: pIC50

* C[C@H](CO)C1=C[C@@]2(C)C(=CC1=O)C=CC(=O)[C@H]2C | 4.40
* CO[C@]12C=C3C=CC(=O)[C@H](C)[C@@]3(C)C[C@@]1(O)[C@H](C)CO2 | 5.34
* CC(=O)OC[C@@H](C)[C@]1(O)C[C@@]2(C)C(=CC1=O)C=CC(=O)[C@H]2C | 5.11
* CO[C@]12C=C3C=C(C4=CC5=C[C@]6(OC)OC[C@@H](C)[C@]6(O)C[C@]5(C)[C@@H](C)C4=O)C(=O)[C@@H](C)[C@@]3(C)C[C@@]1(O)[C@H](C)CO2 | 5.16

====

MEASUREMENT_NOTES: Cytotoxicity against mouse BV-2 cells assessed as reduction in cell growth
Type: toxicity, cell-based
Below, each entry is listed with its recorded CC50.
OBSERVATION_TYPE: CC50

* C[C@H](CO)[C@@H]1C[C@@]2(C)C(=CC1=O)C=CC(=O)[C@H]2C | > 50 µM
* C=C(C)[C@]1(O)C[C@@]2(C)C(=C[C@H]1O)C=CC(=O)[C@@H]2C | > 50 µM
* C[C@H](CO)C1=C[C@@]2(C)C(=CC1=O)C=CC(=O)[C@H]2C | > 50 µM
* CO[C@]12C=C3C=CC(=O)[C@H](C)[C@@]3(C)C[C@@]1(O)[C@H](C)CO2 | > 50 µM
* CC(=O)OC[C@@H](C)[C@]1(O)C[C@@]2(C)C(=CC1=O)[C@@H]1[C@H](C(=O)[C@@H]2C)[C@H]2C(=O)[C@H](C)[C@@]3(C)C[C@@](O)([C@H](C)COC(C)=O)C(=O)C=C3[C@H]21 | > 50 µM
* CC(=O)OC[C@@H](C)[C@]1(O)C[C@@]2(C)C(=CC1=O)C=CC(=O)[C@H]2C | > 50 µM
* CO[C@]12C=C3C=C(C4=CC5=C[C@]6(OC)OC[C@@H](C)[C@]6(O)C[C@]5(C)[C@@H](C)C4=O)C(=O)[C@@H](C)[C@@]3(C)C[C@@]1(O)[C@H](C)CO2 | > 50 µM
* CC1=C(C)[C@]2(C=CC1=O)C[C@@]1(O)[C@H](C)CO[C@@]1(O)C2 | > 50 µM
* COc1cc(/C=C/C(=O)CC(=O)/C=C/c2ccc(O)c(OC)c2)ccc1O | > 50 µM
* CO[C@]12C=C3C=CC(=O)[C@@H](C)[C@@]3(C)C[C@@]1(O)[C@H](C)CO2 | > 50 µM
